// reported DBP-20 for each item listed
# Species on record: Canis familiaris
# protocol: Dose effecting a 20 mmHg change in diastolic blood pressure in dog.
# Format: functional, Canis lupus familiaris, Artery

* COCC1=C(C(=O)NCCCN2CCC(c3ccc(F)cc3)CC2)[C@@H](c2ccc(F)c(F)c2)NC(=O)N1 | >300 µg/kg
* CC1=C(C(=O)NCCCN2CCC(c3ccccc3C#N)CC2)[C@@H](c2ccc(F)c(F)c2)NC(=O)N1 | >300 µg/kg
* CC1=C(C(=O)NCCCN2CCC(c3ccc(F)cc3C#N)CC2)[C@@H](c2ccc(F)c(F)c2)NC(=O)N1 | >300 µg/kg
* CC1=C(C(=O)NCCCN2CCC(c3ccc(F)cc3)CC2)[C@@H](c2ccc(F)c(F)c2)NC(=O)N1 | 143 µg/kg
* O=C1NC=C(C(=O)NCCCN2CCC(c3ccc(F)cc3)CC2)[C@@H](c2ccc(F)c(F)c2)N1 | >300 µg/kg

# input Entry CC1=C(C(=O)NCCCN2CCC(c3ccc(F)cc3C#N)CC2)[C@@H](c2ccc(F)c(F)c2)NC(=O)N1C : reported DBP-20 = ?
# output >300 µg/kg
